Reference source: patent US5232633A

system: zein; design: species or system maize; details: 1% solution of surfactant (30 mls), 1.5 g zein, room temperature, 1 hr
recorded.endpoint: % Zein Solub. (%)

Take a look at these entries with their results.
{"compound": "CCCCCCCCCCC(C)OC(=O)OC(C)CS(=O)(=O)O (stereo not drawn) [SI2DC]", "% Zein Solub. / %": 49}
{"compound": "CCCCCCCCCCCCOC(=O)OC(C)CS(=O)(=O)O (stereo not drawn) [SIDC]", "% Zein Solub. / %": 51}
{"compound": "CCCCCCCCCCC(C)OC(=O)OCCS(=O)(=O)O (stereo not drawn) [SE2DC, Sodium 2-sulfoethyl 2-dodecylcarbonate]", "% Zein Solub. / %": 47}

[P] CCCCCCCCCCCCOC(=O)OC(CC)CS(=O)(=O)O (stereo not drawn) [S2DBC]
[Q] CCCCCCCCCCCCOCCOCCOCCOCCOC(=O)OCCS(=O)(=O)O [SED(4EO)C]
[R] CCCCCCCCCCCCOCCOCCOC(=O)OCCS(=O)(=O)O [SED(2EO)C]
Please put the entries in order of rising % Zein Solub.. Lab note: record answer as labels in requested order.
Q, R, P
(Q: 17%, R: 25%, P: 41%)

###

Assay: Calcium ion sensitivity, modified Hart method
Type: physicochemical
Settings: titration with calcium ion solution, visual cloudiness endpoint
Description: The surfactant solution was titrated with a calcium ion solution. The endpoint was determined by visual observation of the cloudiness of the surfactant solution.
recorded.endpoint: Ca + 2 Needed for Prec. (ppm)

{"compound": "CCCCCCCCCCCC(=O)OCCS(=O)(=O)O [SLI, sodium lauroyl isethionate, reference compound]", "number": 51}
{"compound": "CCCCCCCCCCCCOC(=O)OCCS(=O)(=O)O.[Na]", "number": 150}
{"compound": "CCCCCCCCCCCCOC(=O)OC(C)CS(=O)(=O)O (stereo not drawn) [SIDC]", "number": 2000}

[I] CCCCCCCCCCCCOC(=O)OC(CC)CS(=O)(=O)O (stereo not drawn) [S2DBC]
[II] CCCCCCCCCCC(C)OC(=O)OC(C)CS(=O)(=O)O (stereo not drawn) [SI2DC]
Lower value for measured Ca + 2 Needed for Prec.? Options: I , II Provide the label of your selected option as the answer.
I

###

assay: Critical micelle concentration by surface tension (Wilhemy plate method); type: physicochemical
recorded.endpoint: CMC (mM)

[1] CCCCCCCCCCCCOC(=O)OC(CC)CS(=O)(=O)O (stereo not drawn)
[2] CCCCCCCCCCCC(=O)OCCS(=O)(=O)O [SLI, sodium lauroyl isethionate, reference compound]
Rank 1 against 2 by their CMC values and give the higher one. Provide the label of your selected option as the answer.
2
(2: 6.2 mM, 1: 1.46 mM)

###

test: Foam height, Ross-Miles method; type: physicochemical; conditions: 45° C., water with 120 ppm calcium hardness, initial
recorded.endpoint: Foam Ht., Initial Ht. (mm)

{"compound": "CCCCCCCCCCC(C)OC(=O)OCCS(=O)(=O)O (stereo not shown) [SE2DC, Sodium 2-sulfoethyl 2-dodecylcarbonate]", "unit.abbrev": "mm", "number": 162}
{"compound": "CCCCCCCCCCCCOC(=O)OC(C)CS(=O)(=O)O (stereo not shown)", "unit.abbrev": "mm", "number": 165}
{"compound": "CCCCCCCCCCCCOCCOCCOCCOCCOC(=O)OCCS(=O)(=O)O", "unit.abbrev": "mm", "number": 158}
{"compound": "CCCCCCCCCCCCOCCOCCOC(=O)OCCS(=O)(=O)O", "unit.abbrev": "mm", "number": 165}
{"compound": "CCCCCCCCCCC(C)OC(=O)OC(C)CS(=O)(=O)O (stereo not shown)", "unit.abbrev": "mm", "number": 156}
{"compound": "CCCCCCCCCCCCOC(=O)OC(CC)CS(=O)(=O)O (stereo not shown)", "unit.abbrev": "mm", "number": 166}

###

assay: Foam height, Ross-Miles method; format: physicochemical; settings: 45° C., water with 120 ppm calcium hardness, after 10 minutes
recorded.endpoint: Foam Ht., 10 min Ht. (mm)

{"compound": "CCCCCCCCCCC(C)OC(=O)OCCS(=O)(=O)O (centres unmarked) [SE2DC, Sodium 2-sulfoethyl 2-dodecylcarbonate]", "number": 160}
{"compound": "CCCCCCCCCCCCOC(=O)OC(C)CS(=O)(=O)O (centres unmarked)", "number": 161}
{"compound": "CCCCCCCCCCCCOC(=O)OC(CC)CS(=O)(=O)O (centres unmarked)", "number": 142}
{"compound": "CCCCCCCCCCCCOC(=O)OCCS(=O)(=O)O.[Na]", "number": 149}
{"compound": "CCCCCCCCCCC(C)OC(=O)OC(C)CS(=O)(=O)O (centres unmarked)", "number": 149}
{"compound": "CCCCCCCCCCCCOCCOCCOCCOCCOC(=O)OCCS(=O)(=O)O", "number": 152}
{"compound": "CCCCCCCCCCCCOCCOCCOC(=O)OCCS(=O)(=O)O", "number": 160}

###

Let's look at some molecules and their measured CMC.
Experiment: Critical micelle concentration by surface tension (Wilhemy plate method)
Type: physicochemical
Protocol: The CMC is defined as the concentration of a surfactant at which it begins to form micelles in solution rather than precipitate. Specifically, materials that contain both a hydrophobic group and a hydrophilic group, (such as surfactants), will tend to distort the structure of the solvent (i.e, water) they are in and, therefore, increase the free energy of the system. […] The value of the CMC is determined by surface tension measurements using the Wilhemy plate method. […]
# value in mM; strip the unit string

{"molecule": "CCCCCCCCCCCCOC(=O)OCCS(=O)(=O)O.[Na]", "unit.abbrev": "mM", "number": 2.52}

Name the recorded CMC for CCCCCCCCCCCCOC(=O)OC(C)CS(=O)(=O)O (stereo not shown) [SIDC] .
2.39
